Please respond with reported Cmax for every item in the list.
test.protocol: Pharmacokinetic profiles of PEGylated peptides in Fisher 344 rats
Format: in vivo, rat
reported.conditions: 100 μg agonist/kg, plasma RIA, mean N = 3
Where no end group is shown, it is not given here.
All answers are understood in ng/mL, so give the number only.

[in] Cmax for C6-HSDAVFTEQY(OMe)TOrnLRAibQVAAAibOrnYLQSIOrnC(PEG20K)OrnGGPSSGAPPPC(PEG20K)-NH2 (HSDAVFTEQYTXLRXQVAAXXYLQSIXCXGGPSSGAPPPC; C6 acyl, two PEG20K, C-terminal amide; Synthetic sequence PEGylated VPAC2 receptor agonist) [Agonist P505] ?
[out] 160

[in] // repeat for C6-HSDAVFTEQY(OMe)TOrnLRAibQLAAbuAibOrnyLQAibIOrnOrnGGPSSGAPPPC(PEG30K)C(PEG30K)-NH2 (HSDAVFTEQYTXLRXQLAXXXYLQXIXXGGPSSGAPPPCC; not fully specified (some residues, N-terminus, C-terminus); printed as C6-HSDAVFTEQY(OMe)TOrnLRAibQLAAbuAibOrnyLQAibIOrnOrnGGPSSGAPPPC(PEG30K)C(PEG30K)-NH2; cysteine pairing not given here) [Agonist P570] and report
[out] 71

[in] How about C6-HSDAVFTEQY(OMe)TOrnLRAibQLAAbuAibOrnYLQSIOrnC(PEG40K)OrnGGPSSGAPPPS-NH2 (HSDAVFTEQYTXLRXQLAXXXYLQSIXCXGGPSSGAPPPS; C6 acyl, PEG40K on Cys, C-terminal amide; Synthetic sequence PEGylated VPAC2 receptor agonist) [Agonist P539] ?
[out] 102

Measured values drawn from patent US7897573B2 for this set.
